All figures here come from the supplement of paper PMC10065799.

Test system: Fer (mouse);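 further: 11-residue human phosphosite peptides and single-mutation variants displayed on the E. coli surface, counted by deep sequencing, each peptide's frequency after selection divided by its frequency in the unselected input library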;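 further: frequency after pTyr selection over input frequency; kinase dosed for 20-30% of maximal phosphorylation in three min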
experiment.description: phosphorylation enrichment, bacterial display (enrichment ratio); higher = better substrate or ligand; peptides without Tyr show the background
measured.metric: phosphorylation enrichment
Just the number, please, no unit after it.

RASDYYSQQMA [GBP6_Y334_A331S] :: 0.402
FETDFYRKGGK [INSR_Y1190_YF] :: 0.319
MSNVPYVMNRG [ACAT1_Y161] :: 0.377
IINENYDYLKG [NUP98_Y1664] :: 0.401
AIYEGYALPHA [ACTC1_Y171_P166A] :: 22.6
DKEKWYPLGNS [PIK3C2G_Y1438] :: 0.422

-- ask Give Fer (mouse) phosphorylation enrichment for DEDFLYREELA [POR_Y575_YF]
-- reply 0.544

-- ask Give Fer (mouse) phosphorylation enrichment for SFGESYDNSKS [MAN1B1_Y60_N59S]
-- reply 0.433

-- ask Give Fer (mouse) phosphorylation enrichment for KRPAVYIDEEA [EPM2A_Y304]
-- reply 0.548

-- ask Give Fer (mouse) phosphorylation enrichment for PEADKYCLTYA [FGG_Y300_R301C]
-- reply 0.735

-- ask Give Fer (mouse) phosphorylation enrichment for DEQKKYYNAMK [SCN5A_Y1494_E1489D]
-- reply 0.35

-- ask Give Fer (mouse) phosphorylation enrichment for ATGLIYIGSHD [AASDH_Y870_T865A]
-- reply 0.52

-- ask Give Fer (mouse) phosphorylation enrichment for SDQRRYSLIDR [CLIP2_Y972]
-- reply 0.412
